- target_entity: Fibroblast growth factor 22 (Homo sapiens)
- measurement_description: binders of human FGF22 protein, primary screen, FGF22 synaptogenesis inhibitor project, biophysical, thermal shift, single point (AID 651658)
- particulars: recombinant FGF22 thermal shift, SYPRO orange fluorescence; at 9.99 µM; hits give high values; percent of sucrose octasulfate shift, DMSO zero
Screen size: about 340,000 compounds; about 5,100 (1.5%) were called active. Many of the other results were omitted from the sample, so actives are more common in it than they were.
List of activity (Tm shift, normalised) values.
Entry rule: numbers only, all in %.

{"columns": ["compound", "readout_value"],
 "data": [
  ["COc1ccc(NC(=O)Nc2ccc3c(c2)[C@H]2C[C@H](CC(=O)NC4CCCCC4)O[C@H](CO)[C@H]2O3)cc1", 0.101],
  ["COc1ccc2c(c1)CCc1cn3ncc(C#N)c3nc1-2", -0.072],
  ["CCOc1c(OC)cccc1C(=O)NCC1(c2ccccc2)CCCC1", -0.318],
  ["COC(=O)c1cc(C(=O)N(Cc2ccccc2)c2ccccn2)cc([N+](=O)[O-])c1", 0.167],
  ["COC(=O)C1=CN(c2ccc(F)c(F)c2)C=C(C(=O)OC)C1c1ccc([N+](=O)[O-])cc1", 0.128],
  ["CN1CCCc2nc(-c3ccccc3)ccc21", 42.2],
  ["O=S(=O)(c1cccs1)N1CCCc2nc(-c3ccc(Br)cc3)ccc21", 0.061],
  ["COC(=O)C1=C(C(=O)OC)C(c2cc([N+](=O)[O-])ccc2O)c2sc(=O)[nH]c2S1 (centres undefined)", 43.5]
]}

Alright, here's another compound for you.
**Q:** activity (Tm shift, normalised) for O=C(Cc1ccncc1)N[C@@H]1CC[C@H](CCn2cc(-c3ccccc3F)nn2)O[C@H]1CO ?
**A:** 0.128
